The measurements presented in this section are drawn from paper PMC6269071.

Biological target: human melatonin MT1 receptor (Homo sapiens)
Construct: expressed in transfected cells; host or cells: HEK or CHO cells, stably transfected; membrane preparations
Experiment: 2-[125I]Iodomelatonin competitive binding, MT1
Details: 2-[125I]Iodomelatonin radioligand; membranes of HEK or CHO cells; mean of at least three experiments; read-out: MT1 Ki (µM) ± SEM
In this section, each of the molecules is paired with its reported Ki.
Write the answer as a number in µM, unit excluded.

molecule="COc1ccc2ncc(CNC(=O)C(C)C)nc2c1 [Compound 10d]" endpoint_unit=µM result=0.32
molecule=CCCNC(=O)Nc1ccc2nc(OC)c(OC)nc2c1 endpoint_unit=µM result=1.63
molecule=COc1nc2ccc(NC(C)=O)cc2nc1OC endpoint_unit=µM result=20

get_value(item= `CCCC(=O)NCc1nc2ccccc2nc1OC` , readout=Ki) returns 0.75

---

Biological target: human melatonin MT1 receptor (Homo sapiens, UniProt P48039)
Construct: expressed in transfected cells; host or cells: HEK or CHO cells, stably transfected; membrane preparations
Sequence (P48039 whole entry): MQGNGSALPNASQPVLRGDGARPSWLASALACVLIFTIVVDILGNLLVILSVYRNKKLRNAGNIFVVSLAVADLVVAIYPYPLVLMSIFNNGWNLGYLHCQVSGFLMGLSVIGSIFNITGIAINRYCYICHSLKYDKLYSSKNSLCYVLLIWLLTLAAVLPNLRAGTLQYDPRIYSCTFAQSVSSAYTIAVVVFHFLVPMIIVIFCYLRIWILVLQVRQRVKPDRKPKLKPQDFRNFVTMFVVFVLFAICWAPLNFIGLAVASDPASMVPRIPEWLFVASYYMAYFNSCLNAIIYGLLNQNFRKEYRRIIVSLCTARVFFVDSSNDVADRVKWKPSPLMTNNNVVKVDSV
Experiment: 2-[125I]Iodomelatonin competitive binding, MT1
Conditions: 2-[125I]Iodomelatonin radioligand; membranes of HEK or CHO cells; mean of at least three experiments; read-out: MT1 Ki (µM) ± SEM
ASSAY_READOUT: Ki

Answered examples (5):
compound=CCCC(=O)Nc1ccc2nc(OC)c(OC)nc2c1 result="11.5 µM"
compound=COc1nc2ccccc2nc1CNC(C)=O result="2.98 µM"
compound="CCC(=O)NCc1cnc2ccc(OC)cc2n1 [Compound 10b]" result="> 1000 µM"
compound=COc1nc2ccc(NC(=O)NC(C)C)cc2nc1OC result="> 1000 µM"
compound="COc1ccc2ncc(CNC(C)=O)nc2c1 [Compound 10a]" result="> 1000 µM"

get_value(item= `COc1nc2ccccc2nc1CNC(=O)Nc1ccccc1` , readout=Ki) returns > 1000 µM

get_value(item= `COc1nc2ccc(NC(=O)Nc3ccccc3)cc2nc1OC` , readout=Ki) returns > 1000 µM

---

In this section, each of the molecules is paired with its reported Ki.
Target: human melatonin MT2 receptor (Homo sapiens, UniProt P49286)
Construct: expressed in transfected cells; host or cells: HEK or CHO cells, stably transfected; membrane preparations
Assay: 2-[125I]Iodomelatonin competitive binding, MT2
Conditions: 2-[125I]Iodomelatonin radioligand; membranes of HEK or CHO cells; mean of at least three experiments; read-out: MT2 Ki (µM) ± SEM

Answered examples (3):
molecule=COc1nc2ccccc2nc1CNC(=O)NC(C)C tested_target="human melatonin MT2 receptor (Homo sapiens, UniProt P49286)" assay_readout=Ki result="> 1000 µM"
molecule=CCNC(=O)NCc1nc2ccccc2nc1OC tested_target="human melatonin MT2 receptor (Homo sapiens, UniProt P49286)" assay_readout=Ki result="0.4 µM"
molecule=COc1nc2ccccc2nc1CNC(C)=O tested_target="human melatonin MT2 receptor (Homo sapiens, UniProt P49286)" assay_readout=Ki result="0.88 µM"

Lab note: molecule `COc1nc2ccc(NC(=O)Nc3ccccc3)cc2nc1OC` tested on human melatonin MT2 receptor (Homo sapiens, UniProt P49286); recorded Ki was > 1000 µM

Lab note: molecule `COc1nc2ccccc2nc1CNC(=O)c1ccccc1` tested on human melatonin MT2 receptor (Homo sapiens, UniProt P49286); recorded Ki was > 1000 µM

---

Target: MT2 receptor (CHO-MT2 membranes) (Homo sapiens, UniProt P49286)
Construct: membranes
Sequence (P49286 1-362): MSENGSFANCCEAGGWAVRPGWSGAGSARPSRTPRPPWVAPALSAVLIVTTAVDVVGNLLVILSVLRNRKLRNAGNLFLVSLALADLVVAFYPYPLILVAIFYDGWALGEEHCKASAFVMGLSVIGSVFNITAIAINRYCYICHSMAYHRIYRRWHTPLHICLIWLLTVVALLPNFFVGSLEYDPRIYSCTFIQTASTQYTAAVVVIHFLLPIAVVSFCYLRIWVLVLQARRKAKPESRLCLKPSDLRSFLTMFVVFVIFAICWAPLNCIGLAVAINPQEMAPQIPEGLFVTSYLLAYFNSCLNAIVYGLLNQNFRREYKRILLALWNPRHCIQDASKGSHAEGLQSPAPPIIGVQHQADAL
Test: [35S]GTPγS binding assay, MT2
Conditions: [35S]GTPγS binding, CHO membranes; read-out: MT2 EC50 ± SEM
ASSAY_READOUT: EC50 (nM)
Write the answer as a number in nM, unit excluded.

get_value(item= CCCC(=O)Nc1ccc2nc(OC)c(OC)nc2c1 [Compound 6c] , readout=EC50) returns 1300

---

Molecular target: human melatonin MT1 receptor (Homo sapiens, UniProt P48039)
Construct: expressed in transfected cells; host or cells: HEK or CHO cells, stably transfected; membrane preparations
Test: 2-[125I]Iodomelatonin competitive binding, MT1
Settings: 2-[125I]Iodomelatonin radioligand; membranes of HEK or CHO cells; mean of at least three experiments; read-out: MT1 Ki (µM) ± SEM
ASSAY_READOUT: Ki (µM)
Write the answer as a number in µM, unit excluded.

compound=CCNC(=O)Nc1ccc2nc(OC)c(OC)nc2c1 assay_readout=Ki result=3.41
compound="CCCC(=O)NCc1cnc2ccc(OC)cc2n1 [Compound 10c]" assay_readout=Ki result=0.21
compound=CCC(=O)Nc1ccc2nc(OC)c(OC)nc2c1 assay_readout=Ki result=17.6

Okay, next one:
Lab note: compound `COc1nc2ccccc2nc1CNC(=O)C(C)C` tested on human melatonin MT1 receptor (Homo sapiens, UniProt P48039); recorded Ki was 1.23

---

Target: human melatonin MT1 receptor (Homo sapiens)
Construct: expressed in transfected cells; host or cells: HEK or CHO cells, stably transfected; membrane preparations
Test: 2-[125I]Iodomelatonin competitive binding, MT1
Settings: 2-[125I]Iodomelatonin radioligand; membranes of HEK or CHO cells; mean of at least three experiments; read-out: MT1 Ki (µM) ± SEM
ASSAY_READOUT: Ki (µM)
Write the answer as a number in µM, unit excluded.

compound="CCC(=O)NCc1nc2ccccc2nc1OC [Compound 3b]" assay_readout=Ki endpoint_unit=µM result=2.6

Okay, next one:
get_value(item= COc1nc2ccc(NC(=O)C(C)C)cc2nc1OC [Compound 6d] , readout=Ki) returns 3.4

---

Molecular target: human melatonin MT2 receptor (Homo sapiens)
Construct: expressed in transfected cells; host or cells: HEK or CHO cells, stably transfected; membrane preparations
Sequence (P49286 1-362): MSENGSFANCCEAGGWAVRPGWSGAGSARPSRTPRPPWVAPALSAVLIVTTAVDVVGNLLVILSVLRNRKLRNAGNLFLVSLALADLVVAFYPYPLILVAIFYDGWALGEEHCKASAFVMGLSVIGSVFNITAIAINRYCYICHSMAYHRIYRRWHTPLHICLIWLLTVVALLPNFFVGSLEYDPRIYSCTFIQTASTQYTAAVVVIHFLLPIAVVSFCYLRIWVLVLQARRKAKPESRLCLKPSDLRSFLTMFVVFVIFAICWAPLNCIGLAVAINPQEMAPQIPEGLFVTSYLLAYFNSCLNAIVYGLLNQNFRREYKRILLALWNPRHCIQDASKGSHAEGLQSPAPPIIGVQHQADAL
Experiment: 2-[125I]Iodomelatonin competitive binding, MT2
Conditions: 2-[125I]Iodomelatonin radioligand; membranes of HEK or CHO cells; mean of at least three experiments; read-out: MT2 Ki (µM) ± SEM
In this section, each of the compounds is paired with its reported Ki.
Write the answer as a number in µM, unit excluded.

Answered examples (6):
compound=CCC(=O)NCc1nc2ccccc2nc1OC tested_target="human melatonin MT2 receptor (Homo sapiens)" assay_readout=Ki result=0.66
compound=COc1nc2ccc(NC(=O)C(C)C)cc2nc1OC tested_target="human melatonin MT2 receptor (Homo sapiens)" assay_readout=Ki result=10.5
compound="CCCC(=O)NCc1cnc2ccc(OC)cc2n1 [Compound 10c]" tested_target="human melatonin MT2 receptor (Homo sapiens)" assay_readout=Ki result=0.1
compound="CCC(=O)NCc1cnc2ccc(OC)cc2n1 [Compound 10b]" tested_target="human melatonin MT2 receptor (Homo sapiens)" assay_readout=Ki result=0.34
compound=CCC(=O)Nc1ccc2nc(OC)c(OC)nc2c1 tested_target="human melatonin MT2 receptor (Homo sapiens)" assay_readout=Ki result=4.36
compound=CCCNC(=O)NCc1nc2ccccc2nc1OC tested_target="human melatonin MT2 receptor (Homo sapiens)" assay_readout=Ki result=0.44

Lab note: compound `COc1nc2ccccc2nc1CNC(=O)C(C)C` tested on human melatonin MT2 receptor (Homo sapiens); recorded Ki was 0.47

Lab note: compound `CCCC(=O)Nc1ccc2nc(OC)c(OC)nc2c1` tested on human melatonin MT2 receptor (Homo sapiens); recorded Ki was 1.35

Lab note: compound `CCCNC(=O)Nc1ccc2nc(OC)c(OC)nc2c1` tested on human melatonin MT2 receptor (Homo sapiens); recorded Ki was 0.489

Lab note: compound `CCNC(=O)Nc1ccc2nc(OC)c(OC)nc2c1` tested on human melatonin MT2 receptor (Homo sapiens); recorded Ki was 28.8

Lab note: compound COc1ccc2ncc(CNC(=O)C(C)C)nc2c1 [Compound 10d] tested on human melatonin MT2 receptor (Homo sapiens); recorded Ki was 0.16

Lab note: compound `COc1nc2ccc(NC(C)=O)cc2nc1OC` tested on human melatonin MT2 receptor (Homo sapiens); recorded Ki was 0.08

Lab note: compound `CCCC(=O)NCc1nc2ccccc2nc1OC` tested on human melatonin MT2 receptor (Homo sapiens); recorded Ki was 1.1
